# Tested on: 287954-098-R-J1 tumor spheroid viability;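 further: luminescent signal taken as surrogate of viable cell content; spheroids exposed to compound for 7 days before viability readout; 100% = DMSO vehicle control viability and lower means growth inhibition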
# assay-explanation: Anticancer human tumor 287954-098-R-J1 patient-derived Ewing sarcoma cell line growth inhibition
# condition-parameters: second compound 0.0003 µM; first compound 0.3 µM; stronger effect = lower value; spheroids with HUVEC and MSC
Kindly state viability, T/C for each of the entries shown.
# value in %; strip the unit string

Consider the molecule CNCc1ccc(-c2cc(-c3nc(-c4ccc(S(=O)(=O)C(C)C)cc4)cnc3N)on2)cc1 + COc1cc2c(cc1O)CCNC21CSC2c3c(OC(C)=O)c(C)c4c(c3C(COC1=O)N1C(O)C3Cc5cc(C)c(OC)c(O)c5C(C21)N3C)OCO4 and give its recorded viability, T/C.
0.62

Consider the molecule O=C(c1cc(Cc2n[nH]c(=O)c3ccccc23)ccc1F)N1CCN(C(=O)C2CC2)CC1 + COc1cc2c(cc1O)CCNC21CSC2c3c(OC(C)=O)c(C)c4c(c3C(COC1=O)N1C(O)C3Cc5cc(C)c(OC)c(O)c5C(C21)N3C)OCO4 and give its recorded viability, T/C.
102

Consider the molecule Cn1ncnc1[C@H]1c2n[nH]c(=O)c3cc(F)cc(c23)N[C@@H]1c1ccc(F)cc1 + COc1cc2c(cc1O)CCNC21CSC2c3c(OC(C)=O)c(C)c4c(c3C(COC1=O)N1C(O)C3Cc5cc(C)c(OC)c(O)c5C(C21)N3C)OCO4 and give its recorded viability, T/C.
1.31

Consider the molecule Cc1sc2c(c1C)C(c1ccc(Cl)cc1)=NC(CC(=O)Nc1ccc(O)cc1)c1nnc(C)n1-2 (centres undefined) + COc1cc2c(cc1O)CCNC21CSC2c3c(OC(C)=O)c(C)c4c(c3C(COC1=O)N1C(O)C3Cc5cc(C)c(OC)c(O)c5C(C21)N3C)OCO4 and give its recorded viability, T/C.
12.4
